Origin of the recorded values: paper PMC10803328

Biological target: PSAM^4-GlyR (Homo sapiens, UniProt P23415+P36544, L131G/Q139L/Y217F)
Sequence (P36544+P23415 fused P36544:L131G/P36544:Q139L/P36544:Y217F): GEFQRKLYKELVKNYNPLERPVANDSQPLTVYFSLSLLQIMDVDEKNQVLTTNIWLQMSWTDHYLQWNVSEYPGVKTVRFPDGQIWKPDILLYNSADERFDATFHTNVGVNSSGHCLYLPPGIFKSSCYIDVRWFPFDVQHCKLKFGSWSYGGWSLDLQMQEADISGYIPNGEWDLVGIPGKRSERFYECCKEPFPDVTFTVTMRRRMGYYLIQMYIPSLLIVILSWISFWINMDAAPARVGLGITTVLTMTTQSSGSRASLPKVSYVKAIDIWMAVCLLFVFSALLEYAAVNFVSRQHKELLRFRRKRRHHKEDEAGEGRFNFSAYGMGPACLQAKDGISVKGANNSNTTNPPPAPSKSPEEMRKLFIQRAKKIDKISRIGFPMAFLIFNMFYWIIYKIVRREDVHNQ
Test: Competitive binding assay with [^3H]ASEM on membranes of HEK-293 cells transduced with PSAM^4-GlyR
Set-up: expressed in transfected cells; host or cells: HEK-293 (membrane fraction)
Procedure: HEK-293 cells were transduced with plasmids (5 μg per dish) of encoding PSAM^4-GlyR (in pcDNA3.1) or a control vector (GFP) and harvested 48 h after transduction. […] Protein was quantified by the bicinchoninic acid method (Pierce, ThermoFisher Scientific, MA). […] Plates were incubated overnight at room temperature and radioactivity counts were determined in a MicroBeta2 plate counter (PerkinElmer) with an efficiency of 41%. […] Ki values were calculated using the Cheng-Prusoff equation.
READOUT_LABEL: Ki (nM)
Answers are plain numbers, in nM.

Qu. What value of Ki has been recorded for this entry: Cn1c(=O)cnc2cc3c(cc21)C1CNCC3C1 (stereo not shown)
Ans. 2.62

* * *

assay: Measurement of apparent pKa by radiotracer partition; type: physicochemical; conditions: cyclohexane / sodium phosphate buffer partition; cyclohexane / phosphate buffers pH 3.0-10.5, n = 3
READOUT_LABEL: pKa
Answers are plain numbers.

Qu. What value of pKa has been recorded for this entry: Cn1c(=O)cnc2cc3c(cc21)C1CNCC3C1 (stereo not shown) [uPSEM792]
Ans. 9.92

* * *

assay: Ex vivo measurements of radioactivity in rat brain and blood 100 min after i.v. injection; conditions: male, brain and plasma, intravenous; rat, 100 min; read-out: fold lower concentration of unchanged radioligand in plasma than in brain
READOUT_LABEL: Kp at 100 min

Qu. What value of Kp at 100 min has been recorded for this entry: [11CH3]n1c(=O)cnc2cc3c(cc21)C1CNCC3C1 (stereo not shown) [[^11C]uPSEM792]
Ans. 6.7

* * *

experiment: Plasma free fraction by ultrafiltration, pooled human standard plasma; format: in vitro ADME
READOUT_LABEL: fraction unbound at 10 min, 2.6 MBq/mL
One number for each entry.

Qu. What value of fraction unbound at 10 min, 2.6 MBq/mL has been recorded for this entry: [11CH3]n1c(=O)cnc2cc3c(cc21)C1CNCC3C1 (stereo not shown) [[^11C]uPSEM792]
Ans. 0.876

* * *

test: Plasma free fraction by ultrafiltration, rat plasma; assay type: in vitro ADME; settings: fresh rat plasma, read-out: rat plasma free fraction (fP)
READOUT_LABEL: fraction unbound at 10 min, 2.6 MBq/mL

Qu. What value of fraction unbound at 10 min, 2.6 MBq/mL has been recorded for this entry: [11CH3]n1c(=O)cnc2cc3c(cc21)C1CNCC3C1 (stereo not shown) [[^11C]uPSEM792]
Ans. 0.898
